assayedSystem: Wild-Type ALK (Homo sapiens)
Construct: purchased Life Technology
Sequence (Q9UM73 19-1620): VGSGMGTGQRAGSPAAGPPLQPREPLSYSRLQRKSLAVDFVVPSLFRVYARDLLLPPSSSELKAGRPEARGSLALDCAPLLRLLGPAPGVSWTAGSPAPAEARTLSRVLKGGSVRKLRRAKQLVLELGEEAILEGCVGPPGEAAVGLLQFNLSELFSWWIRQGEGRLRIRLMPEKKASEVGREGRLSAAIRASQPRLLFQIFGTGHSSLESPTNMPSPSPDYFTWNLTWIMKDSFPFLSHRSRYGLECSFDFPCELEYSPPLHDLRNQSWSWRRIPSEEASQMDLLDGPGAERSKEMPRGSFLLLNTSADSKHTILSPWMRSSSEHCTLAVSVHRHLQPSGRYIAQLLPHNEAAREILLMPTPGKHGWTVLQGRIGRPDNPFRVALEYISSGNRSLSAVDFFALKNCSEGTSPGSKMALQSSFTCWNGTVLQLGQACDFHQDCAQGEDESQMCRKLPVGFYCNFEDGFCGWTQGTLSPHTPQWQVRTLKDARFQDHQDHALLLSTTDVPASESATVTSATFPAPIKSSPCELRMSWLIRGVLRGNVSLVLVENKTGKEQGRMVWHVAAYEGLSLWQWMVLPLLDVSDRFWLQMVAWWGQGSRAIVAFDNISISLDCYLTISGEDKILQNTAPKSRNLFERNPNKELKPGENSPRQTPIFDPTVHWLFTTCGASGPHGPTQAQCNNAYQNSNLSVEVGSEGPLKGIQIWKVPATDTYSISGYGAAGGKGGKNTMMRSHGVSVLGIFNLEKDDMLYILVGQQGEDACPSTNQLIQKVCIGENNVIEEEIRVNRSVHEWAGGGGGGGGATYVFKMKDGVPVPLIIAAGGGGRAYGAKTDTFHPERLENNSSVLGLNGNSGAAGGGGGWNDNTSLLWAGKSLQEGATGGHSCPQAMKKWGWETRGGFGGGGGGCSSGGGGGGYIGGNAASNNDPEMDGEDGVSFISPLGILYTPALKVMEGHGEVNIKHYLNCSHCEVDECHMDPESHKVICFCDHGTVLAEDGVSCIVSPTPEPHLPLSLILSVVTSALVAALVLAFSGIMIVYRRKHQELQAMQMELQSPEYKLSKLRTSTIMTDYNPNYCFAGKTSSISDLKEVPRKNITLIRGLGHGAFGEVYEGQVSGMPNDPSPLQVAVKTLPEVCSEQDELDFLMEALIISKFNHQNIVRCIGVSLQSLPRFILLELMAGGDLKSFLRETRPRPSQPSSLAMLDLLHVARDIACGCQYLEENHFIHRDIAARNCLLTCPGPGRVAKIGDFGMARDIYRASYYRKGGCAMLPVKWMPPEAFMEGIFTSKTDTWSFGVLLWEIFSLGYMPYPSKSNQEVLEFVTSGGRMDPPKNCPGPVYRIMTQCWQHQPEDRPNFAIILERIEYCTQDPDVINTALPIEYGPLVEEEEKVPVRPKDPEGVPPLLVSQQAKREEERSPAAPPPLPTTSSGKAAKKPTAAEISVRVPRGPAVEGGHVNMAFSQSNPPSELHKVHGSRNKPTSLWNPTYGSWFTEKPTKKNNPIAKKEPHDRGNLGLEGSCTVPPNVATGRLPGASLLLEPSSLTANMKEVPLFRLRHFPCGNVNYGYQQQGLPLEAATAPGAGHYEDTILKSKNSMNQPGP
testDetails: Z'-LYTE (FRET) ALK kinase inhibitory activity
Type: biochemical
recordedEndpoint: IC50 (nM)

Consider the following illustrative entries.
INSERT INTO measurements (compound, assayedsystem, readoutnumber) VALUES
  ('CCn1cc(Nc2nc(Nc3cc(C)c(C4CCNCC4)c4c3O[C@H](C)C4)ncc2Cl)c(S(=O)(=O)C(C)C)n1', 'Wild-Type ALK (Homo sapiens)', 15.5),
  ('Cc1cc(Nc2ncc(Cl)c(Nc3cn(C)nc3S(=O)(=O)C(C)C)n2)c2c(c1C1CCNCC1)C[C@@H](C)O2 [REX-D1]', 'Wild-Type ALK (Homo sapiens)', 6.82),
  ('Cc1cc(Nc2ncc(Cl)c(Nc3cn(C(C)C)nc3S(=O)(=O)C(C)C)n2)c2c(c1C1CCN(C)CC1)C[C@@H](C)O2', 'Wild-Type ALK (Homo sapiens)', 13.9);

P = Cc1cc(Nc2ncc(Cl)c(Nc3cn(C(C)C)nc3S(=O)(=O)C(C)C)n2)c2c(c1C1CCNCC1)C[C@@H](C)O2
Q = Cc1cc(Nc2ncc(Cl)c(Nc3cn(C)nc3S(=O)(=O)C(C)C)n2)c2c(c1C1CCN(C)CC1)C[C@@H](C)O2 [REX-D2]
Query string: Endpoint returns the identifier whose IC50 is numerically larger, either P or Q . Lab note: record the label of whichever item you select.
Result string: P
(P: 19.3 nM, Q: 13.3 nM)
